Tested on: phospho-p90 RSK (RSK1 Thr359/Ser363) in A375 (Braf V600E) cells
Assay: Phospho-p90 RSK ELISA using A375 (Braf V600E) cells
Format: cell-based
Conditions: Homo sapiens, A-375, 2 hours compound treatment, read-out: Cellular Phospho-p90RSK IC50
pIC50: −log10 of the molar value.
Hi there, I'd appreciate the recorded pIC50 for every entry that follows.

{"columns": ["COMPOUND", "pIC50"],
 "data": [
  ["Cc1cc(-c2n[nH]c3cc4c(cc23)CN([C@@H]2CN(C(C)C)C[C@H]2c2ccccc2)C(=O)N4)ccn1 (racemic)", "≥ 6.60"],
  ["COc1ccc(-c2n[nH]c3cc4c(cc23)CN(Cc2cccc(Cl)c2)C(=O)N4)cn1", "≥ 6.60"],
  ["O=C1Nc2cc3[nH]nc(-c4cn[nH]c4)c3cc2CN1Cc1cccc(Cl)c1", "< 6.00"],
  ["O=C1Nc2cc3[nH]nc(-c4cccnc4)c3cc2CN1Cc1cccc(Cl)c1", "≥ 6.60"],
  ["CC(c1ccccc1)c1cc2cc3c(-c4ccncc4)n[nH]c3cc2[nH]c1=O (centres unmarked)", "≥ 6.60"],
  ["Cc1cc(-c2n[nH]c3cc4c(cc23)CN([C@@H]2CN(CC(F)(F)F)C[C@H]2C)C(=O)N4)ccn1 (racemic)", "≥ 6.60"],
  ["Cc1cc(-c2n[nH]c3cc4c(cc23)CN([C@H]2CCN(Cc3ccccc3)C2)C(=O)N4)ccn1", "≥ 6.60"],
  ["Cc1cc(-c2n[nH]c3cc4c(cc23)CN([C@@H]2CCCN(Cc3cnccc3C)C2)C(=O)N4)ccn1", "6.00 to 6.60"],
  ["Cc1cc(-c2n[nH]c3cc4c(cc23)CN([C@@H]2CN(CCC(F)(F)F)C[C@H]2c2ccccc2)C(=O)N4)ccn1 (mixture of isomers)", "6.00 to 6.60"],
  ["Cc1cc(-c2n[nH]c3cc4[nH]c(=O)c(C5CCCN(Cc6ccccc6)C5)cc4cc23)cc(C)n1 (centres unmarked)", "6.00 to 6.60"]
]}

For each of the compounds below, note its pIC50.
1. [2H]c1c([2H])c([2H])c(C([2H])([2H])N2CCC[C@@H](N3Cc4cc5c(-c6ccnc(C)c6)n[nH]c5cc4NC3=O)C2)c([2H])c1[2H]
2. Cc1cc(-c2n[nH]c3cc4c(cc23)CN(CCNCc2cccc(Cl)c2)C(=O)N4)ccn1
3. COc1cccc(F)c1CN1CCC[C@@H](N2Cc3cc4c(-c5ccnc(C)c5)n[nH]c4cc3NC2=O)C1
4. Cc1cc(-c2n[nH]c3cc4c(cc23)CN([C@@H]2CCCN(Cc3ccc(Cl)cc3)C2)C(=O)N4)ccn1

1. ≥ 6.60
2. 6.00 to 6.60
3. ≥ 6.60
4. 6.00 to 6.60
